# assayed-target: T1, ZFP SBS#487 (synthetic)
# T1 chain: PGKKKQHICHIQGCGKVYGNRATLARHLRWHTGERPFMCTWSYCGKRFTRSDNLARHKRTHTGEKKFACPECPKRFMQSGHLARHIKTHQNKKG
# method-notes: EMSA
# cond: tags: MBP fusion
measure: Kd (nM)
Give just the number in nM; leave the unit off.

Input line: Look up and state reported Kd for GGAGAGGTTT (dsDNA) DNA 1: GGAGAGGTTT DNA 2: AAACCTCTCC
Output line: 76.9
